Target: EZH2 (Homo sapiens)
Sequence (Q15910 whole entry, one chain of several): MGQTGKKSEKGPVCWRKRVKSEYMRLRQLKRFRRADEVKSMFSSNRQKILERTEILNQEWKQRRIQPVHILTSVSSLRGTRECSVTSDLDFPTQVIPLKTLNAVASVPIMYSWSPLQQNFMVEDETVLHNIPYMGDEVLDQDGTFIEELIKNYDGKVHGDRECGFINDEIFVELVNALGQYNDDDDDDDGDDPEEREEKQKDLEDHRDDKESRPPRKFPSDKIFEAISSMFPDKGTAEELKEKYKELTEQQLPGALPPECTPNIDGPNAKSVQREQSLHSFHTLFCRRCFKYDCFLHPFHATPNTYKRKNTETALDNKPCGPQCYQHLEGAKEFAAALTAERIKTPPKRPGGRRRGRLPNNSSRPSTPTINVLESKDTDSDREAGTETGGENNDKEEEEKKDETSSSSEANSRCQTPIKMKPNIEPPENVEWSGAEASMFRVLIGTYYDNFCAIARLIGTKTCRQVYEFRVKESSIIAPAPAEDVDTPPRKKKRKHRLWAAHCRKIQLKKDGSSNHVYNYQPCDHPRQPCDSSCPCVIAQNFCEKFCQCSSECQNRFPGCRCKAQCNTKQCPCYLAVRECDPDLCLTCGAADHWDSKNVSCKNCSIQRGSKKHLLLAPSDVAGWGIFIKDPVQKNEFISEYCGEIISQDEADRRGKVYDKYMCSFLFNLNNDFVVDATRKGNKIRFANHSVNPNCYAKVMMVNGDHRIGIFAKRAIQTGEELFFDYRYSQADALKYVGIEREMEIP
Experiment: Inhibitory activity against EZH2 methyltransferase (radiometric scintillation proximity assay);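 also: Read-out is substrate peptide methylation, captured on streptavidin-coated SPA beads and counted by scintillation, with the reaction run in Tris-HCl buffer at pH 8.0 containing 1% DMSO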
Details: Enzyme inhibitory activity (IC50, nM) EZH2, 2.3 nmol/L enzyme, 90 minutes, room temperature
readout.type: IC50 (nM)

According to the records, this molecule Cc1cc(C)c(CN2CCc3c(Cl)c4c(c(C)c3C2=O)OC(C)(c2c(C)noc2C)O4)c(=O)[nH]1 (stereo not shown) displays IC50 of 3.9

a: Cc1cc(C)c(CN2CCc3c(Cl)c4c(c(C)c3C2=O)OC(C)(C2CCCC2)O4)c(=O)[nH]1 (stereo not shown)
b: CCN(CC)[C@H]1CC[C@H](C2(C)Oc3c(C)c4c(c(C)c3O2)C(=O)N(Cc2c(OC)cc(C)[nH]c2=O)CC4)CC1 (stereo partly shown)
c: Cc1cc(C)c(CN2CCc3cc4c(c(C)c3C2=O)OC(C)([C@H]2CC[C@H](N(C)C)CC2)O4)c(=O)[nH]1 (stereo partly shown)
Order field: IC50 | Direction: descending (largest first) Lab note: final answer is the ordered label list.
c, b, a
(c: 14.3 nM, b: 9.7 nM, a: 4.4 nM)

* * *

Test: Mouse pharmacokinetics, oral single dose
Assay type: in vivo
Conditions: male, ICR, mouse, plasma, po, 30 mg/kg, mice (ICR, male), oral single dose 30 mg/kg, read-out: Area under oral curve (AUC)
readout.type: AUC (ng·h/mL)

I: CN[C@H]1CC[C@H](C2(C)Oc3c(C)c4c(c(Br)c3O2)CCN(Cc2c(C)cc(C)[nH]c2=O)C4=O)CC1 (stereo partly drawn) [Compound 51]
II: CCN(c1cc(-c2ccc(CN3CCOCC3)cc2)cc(C(=O)NCc2c(C)cc(C)[nH]c2=O)c1C)C1CCOCC1 [Control A]
Which of these two has the smaller recorded AUC: I or II ? Give the chosen item's label as your response.
I
(I: 1520 ng·h/mL, II: 4880 ng·h/mL)

* * *

Assay: Mouse pharmacokinetics, oral single dose
Type: in vivo
Settings: male, ICR, mouse, plasma, po, 30 mg/kg, mice (ICR, male), oral single dose 30 mg/kg, read-out: Area under oral curve (AUC)
readout.type: AUC (ng·h/mL)

A: Cc1cc(C)c(CN2CCc3c(C)c4c(c(Cl)c3C2=O)OC(C)([C@H]2CC[C@H](N(C)C)CC2)O4)c(=O)[nH]1 (stereo partly drawn)
B: Cc1cc(C)c(CN2CCc3c(C)c4c(c(C)c3C2=O)OC(C)([C@H]2CC[C@H](N(C)C)CC2)O4)c(=O)[nH]1 (stereo partly drawn)
Compare A and B and name the one whose reported AUC is smaller. Write down the label attached to your selection.
A
(A: 770 ng·h/mL, B: 3650 ng·h/mL)

* * *

Target: EZH1 (Homo sapiens, UniProt Q92800)
Construct: purchased Reaction Biology Corp. (contract assay)
Sequence (Q92800 whole entry): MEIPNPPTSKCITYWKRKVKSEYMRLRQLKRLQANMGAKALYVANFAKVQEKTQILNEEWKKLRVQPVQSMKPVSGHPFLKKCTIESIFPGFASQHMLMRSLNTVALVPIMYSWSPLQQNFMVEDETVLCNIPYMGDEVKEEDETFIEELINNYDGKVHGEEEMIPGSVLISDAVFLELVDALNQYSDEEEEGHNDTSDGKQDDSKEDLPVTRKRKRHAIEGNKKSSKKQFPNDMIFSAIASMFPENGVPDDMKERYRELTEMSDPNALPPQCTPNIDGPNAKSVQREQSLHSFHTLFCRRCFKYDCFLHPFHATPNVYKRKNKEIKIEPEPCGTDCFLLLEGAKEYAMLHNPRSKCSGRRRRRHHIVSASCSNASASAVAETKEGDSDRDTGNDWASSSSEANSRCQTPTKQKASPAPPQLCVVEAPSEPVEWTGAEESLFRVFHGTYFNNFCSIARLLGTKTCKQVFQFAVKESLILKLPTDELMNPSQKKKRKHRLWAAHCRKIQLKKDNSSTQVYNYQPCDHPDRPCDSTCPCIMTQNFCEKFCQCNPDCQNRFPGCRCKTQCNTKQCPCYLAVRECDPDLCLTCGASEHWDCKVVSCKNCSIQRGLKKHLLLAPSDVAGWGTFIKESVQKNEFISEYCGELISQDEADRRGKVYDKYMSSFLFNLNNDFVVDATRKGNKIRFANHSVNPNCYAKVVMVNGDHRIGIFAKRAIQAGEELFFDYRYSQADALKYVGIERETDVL
Sequence (O75530 whole entry partner): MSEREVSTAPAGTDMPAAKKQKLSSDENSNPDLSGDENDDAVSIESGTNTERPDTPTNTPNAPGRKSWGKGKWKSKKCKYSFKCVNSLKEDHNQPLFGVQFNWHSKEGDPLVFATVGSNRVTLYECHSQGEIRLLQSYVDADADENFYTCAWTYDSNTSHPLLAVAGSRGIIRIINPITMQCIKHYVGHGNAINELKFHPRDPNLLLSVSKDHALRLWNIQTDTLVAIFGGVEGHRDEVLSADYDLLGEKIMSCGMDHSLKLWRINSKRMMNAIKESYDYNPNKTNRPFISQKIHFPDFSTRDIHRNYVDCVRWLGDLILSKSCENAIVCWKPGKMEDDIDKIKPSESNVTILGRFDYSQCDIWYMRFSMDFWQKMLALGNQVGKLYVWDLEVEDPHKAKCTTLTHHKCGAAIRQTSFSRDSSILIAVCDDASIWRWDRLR
Sequence (Q15022 whole entry partner): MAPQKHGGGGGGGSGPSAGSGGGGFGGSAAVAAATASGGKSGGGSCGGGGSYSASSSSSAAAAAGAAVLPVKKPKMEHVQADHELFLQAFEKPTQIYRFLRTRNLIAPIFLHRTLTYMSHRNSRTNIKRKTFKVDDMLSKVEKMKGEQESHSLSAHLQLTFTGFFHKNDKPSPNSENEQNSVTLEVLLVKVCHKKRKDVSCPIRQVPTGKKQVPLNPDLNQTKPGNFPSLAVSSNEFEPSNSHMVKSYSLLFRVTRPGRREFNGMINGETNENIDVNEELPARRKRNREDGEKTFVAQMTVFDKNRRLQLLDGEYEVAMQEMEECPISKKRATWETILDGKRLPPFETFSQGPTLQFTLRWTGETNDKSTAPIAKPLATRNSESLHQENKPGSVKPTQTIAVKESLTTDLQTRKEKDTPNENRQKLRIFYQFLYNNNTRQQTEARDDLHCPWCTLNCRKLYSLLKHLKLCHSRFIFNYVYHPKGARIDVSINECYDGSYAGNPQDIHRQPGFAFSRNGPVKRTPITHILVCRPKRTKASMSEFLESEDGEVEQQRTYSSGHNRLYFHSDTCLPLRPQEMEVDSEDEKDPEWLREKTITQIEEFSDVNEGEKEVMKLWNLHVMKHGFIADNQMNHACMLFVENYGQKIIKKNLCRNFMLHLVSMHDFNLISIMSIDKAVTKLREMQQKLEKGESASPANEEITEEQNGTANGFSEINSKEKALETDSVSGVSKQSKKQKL
Sequence (Q09028 whole entry partner): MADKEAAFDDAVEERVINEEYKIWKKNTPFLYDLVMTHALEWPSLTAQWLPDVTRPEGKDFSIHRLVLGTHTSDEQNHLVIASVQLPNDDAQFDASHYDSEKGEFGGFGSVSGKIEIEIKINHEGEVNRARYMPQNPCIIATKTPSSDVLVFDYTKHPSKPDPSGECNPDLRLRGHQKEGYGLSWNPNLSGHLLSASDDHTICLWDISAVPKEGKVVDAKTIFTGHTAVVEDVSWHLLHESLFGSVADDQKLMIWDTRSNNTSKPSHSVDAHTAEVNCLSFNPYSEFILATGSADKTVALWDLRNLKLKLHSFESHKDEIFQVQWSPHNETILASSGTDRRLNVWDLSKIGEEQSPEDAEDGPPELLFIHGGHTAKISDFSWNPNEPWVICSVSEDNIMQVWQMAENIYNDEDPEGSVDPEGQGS
Sequence (Q6ZN18 whole entry partner): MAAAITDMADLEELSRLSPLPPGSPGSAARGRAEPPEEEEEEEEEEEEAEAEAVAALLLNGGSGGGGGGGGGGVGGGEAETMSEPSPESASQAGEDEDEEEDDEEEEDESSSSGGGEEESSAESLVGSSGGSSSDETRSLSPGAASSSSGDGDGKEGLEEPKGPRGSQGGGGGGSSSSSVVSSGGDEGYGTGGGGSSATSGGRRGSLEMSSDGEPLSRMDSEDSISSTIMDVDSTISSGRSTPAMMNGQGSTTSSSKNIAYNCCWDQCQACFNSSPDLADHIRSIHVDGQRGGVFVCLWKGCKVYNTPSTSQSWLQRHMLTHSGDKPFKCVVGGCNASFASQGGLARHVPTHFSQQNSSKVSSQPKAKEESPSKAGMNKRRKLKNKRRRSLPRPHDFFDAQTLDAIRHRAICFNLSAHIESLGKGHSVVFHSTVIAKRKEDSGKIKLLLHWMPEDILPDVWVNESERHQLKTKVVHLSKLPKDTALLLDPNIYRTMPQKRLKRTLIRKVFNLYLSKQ
Assay: Inhibitory activity against EZH1 methyltransferase (radiometric scintillation proximity assay)
Assay type: biochemical
Conditions: 2.3 nmol/L enzyme, 90 minutes, room temperature
readout.type: IC50 (nM)

1: Cc1cc(C)c(CN2CCc3c(Cl)c4c(c(C)c3C2=O)OC(C)(C2CCNCC2)O4)c(=O)[nH]1 (stereo not drawn) [Compound 28]
2: CCCc1cc(C)[nH]c(=O)c1CN1CCc2c(C)c3c(c(C)c2C1=O)OC(C)([C@H]1CC[C@H](N(C)C)CC1)O3 (stereo partly drawn) [Compound 43]
When their IC50 values are compared, which is larger, 1 or 2 ? Return value: the label identifying the chosen record.
1

* * *

System: Pfeiffer (EZH2 A677G mutation)
Experiment: Cell growth inhibition test, Pfeiffer
Format: cell-based
Conditions: Homo sapiens, read-out: Cell growth inhibitory activity (GI50, nM) Pfeiffer (EZH2 A677G mutation)
readout.type: GI50 (nM)
Note: unit nM is implicit; provide only the numeric part.

Examples with their reported GI50 follow.
Form: compound = Cc1cc(C)c(CN2CCc3c(Br)c4c(c(C)c3C2=O)OC(C)([C@H]2CC[C@H](N(C)C)CC2)O4)c(=O)[nH]1 (single isomer, unassigned) [Compound 49] ; GI50 = 0.21

Note to self: GI50 recorded for Cc1cc(C)c(CN2CCc3c(Cl)c4c(c(C)c3C2=O)OC(C)([C@H]2CC[C@@H](N(C)C)CC2)O4)c(=O)[nH]1 (stereo partly drawn) was 0.66

// GI50 value for COc1cc(C)[nH]c(=O)c1CN1CCc2c(Cl)c3c(c(C)c2C1=O)OC(C)([C@H]1CC[C@H](N(C)C)CC1)O3 (stereo partly drawn) : 0.27

Per the records, this compound ( Cc1cc(C)c(CN2CCc3c(Cl)c4c(c(C)c3C2=O)OC(C)([C@H]2CC[C@H](N(C)C)CC2)O4)c(=O)[nH]1 (single isomer, unassigned) [Compound 10] ) has GI50 equal to 0.84

Next compound, please.
get_value(item= Cc1cc(C)c(CN2CCc3c(Cl)c4c(c(C)c3C2=O)OC(C)([C@H]2CC[C@H](N(C)C)CC2)O4)c(=O)[nH]1 (mixture of isomers) [Compound 9] , readout=GI50) returns 0.97

* * *

Biological target: EZH1 (Homo sapiens)
Construct: purchased Reaction Biology Corp. (contract assay)
Experiment: Inhibitory activity against EZH1 methyltransferase (radiometric scintillation proximity assay)
Format: biochemical
Details: 2.3 nmol/L enzyme, 90 minutes, room temperature
readout.type: IC50 (nM)

The compound listed as Cc1cc(C)c(CN2CCc3c(C)c4c(c(Cl)c3C2=O)OC(C)([C@H]2CC[C@H](N(C)C)CC2)O4)c(=O)[nH]1 (single isomer, unassigned) [Compound 5] has a reported IC50 of 16

a: Cc1cc(C)c(CN2CCc3c(Cl)c4c(c(C)c3C2=O)OC(C)(CCCCN(C)C)O4)c(=O)[nH]1 (stereo not drawn)
b: Cc1cc(C)c(CN2CCc3c(Cl)c4c(c(C)c3C2=O)OC(C)([C@H]2CC[C@H](N3CCCC3)CC2)O4)c(=O)[nH]1 (stereo partly drawn)
c: CCN[C@H]1CC[C@H](C2(C)Oc3c(C)c4c(c(C)c3O2)C(=O)N(Cc2c(OC)cc(C)[nH]c2=O)CC4)CC1 (stereo partly drawn)
Highest IC50 first, then in falling order down to the smallest. Would you mind listing the labels in the order asked for?
a, b, c

* * *

Biological target: EZH1 (Homo sapiens)
Construct: purchased Reaction Biology Corp. (contract assay)
Test: Inhibitory activity against EZH1 methyltransferase (radiometric scintillation proximity assay);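 also: Read-out is methylation of a substrate peptide, captured on streptavidin-coated SPA beads and counted by scintillation, in Tris-HCl buffer at pH 8.0 with 1% DMSO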
Type: biochemical
Details: 2.3 nmol/L enzyme, 90 minutes, room temperature
readout.type: IC50 (nM)

Lab book: IC50 of CN[C@H]1CC[C@H](C2(C)Oc3c(C)c4c(c(Br)c3O2)CCN(Cc2c(C)cc(C)[nH]c2=O)C4=O)CC1 (some centres unmarked) [Compound 51] noted as 41

Short answer for Cc1cc(C)c(CN2CCc3c(Cl)c4c(c(C)c3C2=O)OC(C)(C2CCN(CC(F)(F)F)CC2)O4)c(=O)[nH]1 (centres unmarked) [Compound 31] : IC50 was 51

So, Cc1cc(C)c(CN2CCc3c(c(C)c4c(c3-c3ccc(CN5CCOCC5)cc3)OC(C)([C@H]3CC[C@H](N(C)C)CC3)O4)C2=O)c(=O)[nH]1 (some centres unmarked) [Compound 55] ? Its IC50 was 26

# IC50 of Cc1cc(C)c(CN2CCc3c(Cl)c4c(c(C)c3C2=O)OC(C)([C@H]2CC[C@H](N3CCCCC3)CC2)O4)c(=O)[nH]1 (some centres unmarked) [Compound 17] = 74

a: CCCc1cc(C)[nH]c(=O)c1CN1CCc2c(Cl)c3c(c(C)c2C1=O)OC(C)([C@H]1CC[C@H](N(C)C)CC1)O3 (some centres unmarked) [Compound 14]
b: CN[C@H]1CC[C@H](C2(C)Oc3c(C)c4c(c(Cl)c3O2)CCN(Cc2c(C)cc(C)[nH]c2=O)C4=O)CC1 (some centres unmarked) [Compound 34]
c: Cc1cc(C)c(CN2CCc3c(Cl)c4c(c(Cl)c3C2=O)OC(C)([C@H]2CC[C@H](N(C)C)CC2)O4)c(=O)[nH]1 (some centres unmarked) [Compound 7]
d: Cc1cc(C)c(CN2CCc3c(Cl)c4c(c(C)c3C2=O)OC(C)(c2c(C)noc2C)O4)c(=O)[nH]1 (centres unmarked) [Compound 27]
Rank descending by IC50. Lab note: final answer is the ordered label list.
d, c, a, b
(d: 310 nM, c: 54 nM, a: 27 nM, b: 9.7 nM)

I: Cc1cc(C)c(CN2CCc3c(C)c4c(c(C)c3C2=O)OC(C)([C@H]2CC[C@H](N(C)C)CC2)O4)c(=O)[nH]1 (single isomer, unassigned) [Compound 40]
II: Cc1cc(C)c(CN2CCc3cc4c(c(C)c3C2=O)OC(C)([C@H]2CC[C@H](N(C)C)CC2)O4)c(=O)[nH]1 (some centres unmarked) [Compound 1]
Sort I and II by IC50 descending and give the first. Please respond with the label that marks your chosen entry.
II
(II: 97.6 nM, I: 28 nM)

A: Cc1cc(C)c(CN2CCc3c(C)c4c(c(Cl)c3C2=O)OC(C)([C@H]2CC[C@H](N(C)C)CC2)O4)c(=O)[nH]1 (some centres unmarked) [Compound 4]
B: Cc1cc(C)c(CN2CCc3c(C)c4c(c(C)c3C2=O)OC(C)([C@H]2CC[C@H](N)CC2)O4)c(=O)[nH]1 (some centres unmarked) [Compound 38]
C: Cc1cc(C)c(CN2CCc3c(Cl)c4c(c(C)c3C2=O)OC(C)(C2CCOCC2)O4)c(=O)[nH]1 (centres unmarked) [Compound 24]
D: CC[C@@H](O)C(=O)N1CCC(C2(C)Oc3c(C)c4c(c(Cl)c3O2)CCN(Cc2c(C)cc(C)[nH]c2=O)C4=O)CC1 (some centres unmarked) [Compound 30]
Number of compounds to sort: 4. Sort criterion: IC50, ascending. Give the labels in the order requested.
A, C, B, D

I: CCN[C@H]1CC[C@H](C2(C)Oc3c(C)c4c(c(Cl)c3O2)CCN(Cc2c(C)cc(C)[nH]c2=O)C4=O)CC1 (some centres unmarked) [Compound 15]
II: Cc1cc(C)c(CN2CCc3c(Cl)c4c(c(C)c3C2=O)OC(C)(C2CCN(C)CC2)O4)c(=O)[nH]1 (centres unmarked) [Compound 29]
III: Cc1cc(C)c(CN2CCc3c(c(C)c4c(c3C3CC3)OC(C)([C@H]3CC[C@H](N(C)C)CC3)O4)C2=O)c(=O)[nH]1 (some centres unmarked) [Compound 54]
Ascending by IC50, please: list the compounds accordingly. # output: labels, in the requested order
III, I, II
(III: 41 nM, I: 65 nM, II: 136 nM)

Origin of values: patent US12344618B2
